We begin with a simple list: items and their reported pKd.
Molecular target: T1, human CD80-murine Ig fusion protein (human)
T1 construct: Bought (Ancell #510-820); also called hCD80-mIg; human CD80-murine IgG
T1 chain: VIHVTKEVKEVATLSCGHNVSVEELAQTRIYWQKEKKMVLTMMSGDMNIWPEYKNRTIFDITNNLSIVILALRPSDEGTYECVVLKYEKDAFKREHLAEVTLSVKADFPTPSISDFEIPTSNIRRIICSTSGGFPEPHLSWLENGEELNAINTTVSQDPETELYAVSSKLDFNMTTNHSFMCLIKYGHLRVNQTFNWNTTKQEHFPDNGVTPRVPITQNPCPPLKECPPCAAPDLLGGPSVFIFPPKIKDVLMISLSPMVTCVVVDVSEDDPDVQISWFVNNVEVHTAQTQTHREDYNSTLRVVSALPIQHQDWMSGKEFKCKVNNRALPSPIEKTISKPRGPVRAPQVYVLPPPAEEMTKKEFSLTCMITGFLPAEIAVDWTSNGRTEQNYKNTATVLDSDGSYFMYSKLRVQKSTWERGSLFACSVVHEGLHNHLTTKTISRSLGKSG
Assay: SPR Biacore, hCD80-mIg captured
pKd: −log10 of the molar value.

binder="D3-4-IgG2 (Fc fusion, also called D3-04-IgG2) MHVAQPAVVLASSRGIASFVCEYESPGKANEIRVTVLRQADSQVTEVCAMTYMKGDELTFLDDPSCTGTFSGNQVNLTIQGLRAADTGLYICKVELMYPPPYYLGFGNGTQIYVIDPEPCPDSDERKCCVECPPCPAPPVAGPSVFLFPPKPKDTLMISRTPEVTCVVVDVSHEDPEVQFNWYVDGVEVHNAKTKPREEQFNSTFRVVSVLTVVHQDWLNGKEYKCKVSNKGLPAPIEKTISKTKGQPREPQVYTLPPSREEMTKNQVSLTCLVKGFYPSDIAVEWESNGQPENNYKTTPPMLDSDGSFFLYSKLTVDKSRWQQGNVFSCSVMHEALHNHYTQKSLSLSPG" observed_property=pKd assay_value="8.76 to 9.36"

Shift focus to the following entry.
# pKd of D3-27-IgG2 (Fc fusion) MHVAQPAVVLASSRGIASFVCEYESPGKANEVRVTVLRQADSQVTEVCAMTYMKGNELTFLDDPSCTGTFSGNQVNLTIQGLRAMDTGLYICKVELMYPPPYYLGIGNGTQIYVIDPEPCPDSDERKCCVECPPCPAPPVAGPSVFLFPPKPKDTLMISRTPEVTCVVVDVSHEDPEVQFNWYVDGVEVHNAKTKPREEQFNSTFRVVSVLTVVHQDWLNGKEYKCKVSNKGLPAPIEKTISKTKGQPREPQVYTLPPSREEMTKNQVSLTCLVKGFYPSDIAVEWESNGQPENNYKTTPPMLDSDGSFFLYSKLTVDKSRWQQGNVFSCSVMHEALHNHYTQKSLSLSPG = 8.76 to 9.36
